The entries below come with measured MFI values attached.
# target_of_assay: T1, human chemokine (C-C motif) receptor 8 (CCR8) (human, UniProt P51685 1-355)
# T1 construct: On human peripheral blood lymphocytes / PBMC (native) or on human CCR8 GFP-transfected Ba/F3 cells; also called hCCR8; human CCR8
# run_description: flow cytometry blocking, PBMC CCR8+ CD4+ cells; competitor PE-AB6 (its MFI is read)
recorded_endpoint: MFI

[
  {
    "binder": "AB4 (antibody, V domains shown, Hybridoma monoclonal; also called antibody 4; clone 4) VH: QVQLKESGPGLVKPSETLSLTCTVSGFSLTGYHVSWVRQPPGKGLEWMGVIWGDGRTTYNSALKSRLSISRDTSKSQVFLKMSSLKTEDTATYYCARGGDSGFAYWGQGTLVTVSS VL: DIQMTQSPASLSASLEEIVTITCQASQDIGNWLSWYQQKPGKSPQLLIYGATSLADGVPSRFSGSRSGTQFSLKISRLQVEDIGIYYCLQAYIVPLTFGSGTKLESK",
    "assay_result": 413
  },
  {
    "binder": "AB8 (antibody, V domains shown, Hybridoma monoclonal; also called antibody 8; clone 8) VH: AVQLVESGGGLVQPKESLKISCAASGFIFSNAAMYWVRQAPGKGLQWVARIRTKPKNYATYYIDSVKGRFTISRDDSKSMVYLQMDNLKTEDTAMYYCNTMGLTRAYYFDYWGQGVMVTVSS VL: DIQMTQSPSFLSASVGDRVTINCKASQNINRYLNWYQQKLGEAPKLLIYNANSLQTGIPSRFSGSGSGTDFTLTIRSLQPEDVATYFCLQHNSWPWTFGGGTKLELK",
    "assay_result": 944
  },
  {
    "binder": "AB3 (antibody, V domains shown, Hybridoma monoclonal; also called antibody 3; clone 3) VH: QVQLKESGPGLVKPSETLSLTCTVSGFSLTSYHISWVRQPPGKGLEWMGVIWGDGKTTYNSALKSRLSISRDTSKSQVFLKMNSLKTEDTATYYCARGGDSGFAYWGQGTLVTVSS VL: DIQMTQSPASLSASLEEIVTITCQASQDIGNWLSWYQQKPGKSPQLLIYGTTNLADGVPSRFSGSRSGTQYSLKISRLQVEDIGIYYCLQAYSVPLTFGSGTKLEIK",
    "assay_result": 427
  },
  {
    "binder": "AB13 (antibody, V domains shown, Hybridoma monoclonal; also called antibody 13; clone 13) VH: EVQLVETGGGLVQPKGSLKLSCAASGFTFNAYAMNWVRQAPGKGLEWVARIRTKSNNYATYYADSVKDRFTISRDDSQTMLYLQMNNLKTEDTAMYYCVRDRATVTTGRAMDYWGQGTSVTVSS VL: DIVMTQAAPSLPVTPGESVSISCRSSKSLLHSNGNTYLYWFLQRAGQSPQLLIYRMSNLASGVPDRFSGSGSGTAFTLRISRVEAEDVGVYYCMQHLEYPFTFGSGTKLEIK",
    "assay_result": 1020
  },
  {
    "binder": "AB2 (antibody, V domains shown, Hybridoma monoclonal; also called antibody 2; clone 2) VH: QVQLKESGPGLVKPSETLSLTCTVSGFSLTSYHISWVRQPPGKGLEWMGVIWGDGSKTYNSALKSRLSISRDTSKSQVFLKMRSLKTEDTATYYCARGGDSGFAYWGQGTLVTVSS VL: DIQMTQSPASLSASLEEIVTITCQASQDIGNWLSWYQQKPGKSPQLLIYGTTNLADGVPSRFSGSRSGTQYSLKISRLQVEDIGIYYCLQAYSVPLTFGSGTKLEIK",
    "assay_result": 424
  },
  {
    "binder": "AB14 (antibody, V domains shown, Hybridoma monoclonal; also called antibody 14; clone 14) VH: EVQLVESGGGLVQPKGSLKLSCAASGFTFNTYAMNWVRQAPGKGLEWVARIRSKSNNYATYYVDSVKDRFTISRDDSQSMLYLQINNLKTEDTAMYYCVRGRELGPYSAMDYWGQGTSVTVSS VL: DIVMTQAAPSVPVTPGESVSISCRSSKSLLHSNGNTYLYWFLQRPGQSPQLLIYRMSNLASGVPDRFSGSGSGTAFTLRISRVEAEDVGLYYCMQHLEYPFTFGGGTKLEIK",
    "assay_result": 966
  },
  {
    "binder": "AB5 (antibody, V domains shown, Hybridoma monoclonal; also called antibody 5; clone 5) VH: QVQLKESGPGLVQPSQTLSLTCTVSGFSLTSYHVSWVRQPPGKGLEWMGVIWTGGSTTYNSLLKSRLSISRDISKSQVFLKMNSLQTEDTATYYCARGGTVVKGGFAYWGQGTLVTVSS VL: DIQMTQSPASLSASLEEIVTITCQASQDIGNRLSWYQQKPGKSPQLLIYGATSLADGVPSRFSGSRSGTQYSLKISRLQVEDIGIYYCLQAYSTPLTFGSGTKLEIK",
    "assay_result": 504
  },
  {
    "binder": "AB11 (antibody, V domains shown, Hybridoma monoclonal; also called antibody 11; clone 11) VH: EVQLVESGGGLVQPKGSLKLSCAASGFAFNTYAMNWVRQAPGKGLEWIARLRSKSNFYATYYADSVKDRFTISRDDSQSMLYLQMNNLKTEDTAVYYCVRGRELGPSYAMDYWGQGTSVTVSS VL: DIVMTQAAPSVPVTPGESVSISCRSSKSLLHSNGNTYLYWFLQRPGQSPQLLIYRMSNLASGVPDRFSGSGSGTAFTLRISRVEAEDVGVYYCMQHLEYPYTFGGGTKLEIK",
    "assay_result": 1070
  },
  {
    "binder": "AB10 (antibody, V domains shown, Hybridoma monoclonal; also called antibody 10; clone 10) VH: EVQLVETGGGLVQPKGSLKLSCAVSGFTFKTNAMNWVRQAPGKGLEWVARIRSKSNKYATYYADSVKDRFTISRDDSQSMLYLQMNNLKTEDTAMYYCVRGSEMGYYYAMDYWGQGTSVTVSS VL: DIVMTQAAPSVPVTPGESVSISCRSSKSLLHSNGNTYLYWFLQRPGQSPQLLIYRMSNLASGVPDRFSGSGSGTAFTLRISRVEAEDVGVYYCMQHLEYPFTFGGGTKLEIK",
    "assay_result": 990
  },
  {
    "binder": "AB12 (antibody, V domains shown, Hybridoma monoclonal; also called antibody 12; clone 12) VH: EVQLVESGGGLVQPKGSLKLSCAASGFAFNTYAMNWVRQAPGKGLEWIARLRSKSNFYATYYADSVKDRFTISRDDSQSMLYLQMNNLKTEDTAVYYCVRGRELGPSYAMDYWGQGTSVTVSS VL: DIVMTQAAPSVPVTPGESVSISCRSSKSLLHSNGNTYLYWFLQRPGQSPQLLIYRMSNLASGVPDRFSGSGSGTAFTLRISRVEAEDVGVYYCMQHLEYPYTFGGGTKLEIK",
    "assay_result": 973
  },
  {
    "binder": "AB1 (antibody, V domains shown, Hybridoma monoclonal (mice or rats immunised); Used purified and PE-conjugated; also called antibody 1; clone 1) VH: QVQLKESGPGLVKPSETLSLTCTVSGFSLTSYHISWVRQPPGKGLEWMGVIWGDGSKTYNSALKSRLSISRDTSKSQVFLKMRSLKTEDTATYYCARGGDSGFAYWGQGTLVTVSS VL: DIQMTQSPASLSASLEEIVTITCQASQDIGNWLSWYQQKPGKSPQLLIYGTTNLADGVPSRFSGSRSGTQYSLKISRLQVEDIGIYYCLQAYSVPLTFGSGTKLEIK",
    "assay_result": 469
  }
]
